- systemUnderTest: VAD (vanillyl-alcohol dehydrogenase from Marinicaulis flavus) (Hyphococcus luteus, UniProt A0A2S7K3M2)
- Construct: SUMO tag cleaved for crystals; covalent FAD on H387; dimer
- Sequence (A0A2S7K3M2 1-521): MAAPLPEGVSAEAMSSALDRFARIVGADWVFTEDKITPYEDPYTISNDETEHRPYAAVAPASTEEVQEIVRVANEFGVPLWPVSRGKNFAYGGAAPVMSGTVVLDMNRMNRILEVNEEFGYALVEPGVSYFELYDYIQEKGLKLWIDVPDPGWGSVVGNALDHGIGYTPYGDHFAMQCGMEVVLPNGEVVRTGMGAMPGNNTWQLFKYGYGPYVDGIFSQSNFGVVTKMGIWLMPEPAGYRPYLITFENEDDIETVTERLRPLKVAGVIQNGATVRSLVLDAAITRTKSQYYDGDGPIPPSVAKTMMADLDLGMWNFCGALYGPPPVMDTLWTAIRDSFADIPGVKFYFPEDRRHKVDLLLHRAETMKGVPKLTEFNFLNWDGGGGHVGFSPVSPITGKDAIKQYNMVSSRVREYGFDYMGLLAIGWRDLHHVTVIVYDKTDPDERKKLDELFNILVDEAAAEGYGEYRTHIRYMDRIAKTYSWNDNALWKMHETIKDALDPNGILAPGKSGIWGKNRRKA
- testSummary: anaerobic stopped-flow reductive half-reaction
- conditionParameters: 25 °C, 50 mM potassium phosphate pH 7.5, 150 mM NaCl, oxidized enzyme
- Text: anaerobic stopped-flow reductive half-reaction on VAD (vanillyl-alcohol dehydrogenase from Marinicaulis flavus)
measuredEndpoint: pKd
Just so you know, pKd here is -log10 of the concentration in molar units; reply with that number alone.

Request: Quick one: pKd for COc1cc(CO)ccc1O ?
Result: 4.62

Recorded values, source paper PMC7617285.
